target: human SCD1 (Homo sapiens); construct: expressed in transfected cells; host or cells: yeast strain with OLE1 deleted, plasmid-borne human SCD1 (selected in SD-Ura); test: Growth inhibition of yeast strain expressing human SCD1 as sole desaturase (OLE1 deleted), OD600 readout; format: cell-based; conditions: yeast strain expressing human SCD1 as sole desaturase; growth (OD600) after 40 h at 30° C.; read-out: SCD1 IC50
measured_quantity: IC50 (µM)
Give a bare numeral; the unit µM is implied.

molecule	unit_name	IC50
Cc1cc(C(=O)Nc2ccc(Cc3ccc(F)c(C#N)c3)cn2)nn(C)c1=O	µM	3.4

Could you please provide reported IC50 for `COCc1ncc(C(=O)Nc2ccc(Cc3cccc(Cl)c3)cn2)cn1` ? Thanks!
12

Please list IC50 recorded for the molecule `COc1cccc(Cc2cnc(NC(=O)c3ccc(=O)n(C)n3)s2)c1`
0.15

Consider the molecule `COC(=O)c1ccc(C(=O)Nc2ccc(Cc3cccc(Cl)c3)cn2)nn1` . State its measured IC50.
1.93

For `CCn1cc(NC(=O)c2ccc(Cc3cc(F)cc(Cl)c3)cn2)ccc1=O` , write its IC50.
5.19

Complete the entry with IC50 for CC(O)c1ccc(C(=O)Nc2ccc(Cc3cccc(F)c3)cn2)cn1 (stereo not drawn)
1.1

* * *

target: human SCD1 (Homo sapiens, UniProt O00767); construct: expressed in transfected cells; host or cells: yeast strain with OLE1 deleted, plasmid-borne human SCD1 (selected in SD-Ura); experiment: Growth inhibition of yeast strain expressing human SCD1 as sole desaturase (OLE1 deleted), OD600 readout; type: cell-based; settings: yeast strain expressing human SCD1 as sole desaturase; growth (OD600) after 40 h at 30° C.; read-out: SCD1 IC50
Response field label: string, one of yes (1) (IC50 strictly below 3000 nM) or no (0).

molecule	assigned_label
CN1N=C(C(=O)Oc2ccc(NCc3cccc(Br)c3)nc2)CCC1=O	no (0)

Does `CCn1nc(C(=O)Nc2ccc(Cc3ccc(Cl)c(Cl)c3)cn2)ccc1=O` have IC50 strictly under 3000 nM?
yes (1)

# strict comparison: is reported IC50 < 3000 nM? input = `CNC(=O)c1ccnc(C(=O)Nc2ccc(Oc3ccccc3Cl)cn2)c1`
no (0)

API: query returns whether the molecule falls strictly under 3000 nM in IC50. Query: `O=C(Nc1ccc(Cc2cccc(Cl)c2)cn1)c1ccc(CO)nc1`
yes (1)

IC50 strictly < 3000 nM for this molecule? `Cn1nc(C(=O)Nc2ccc(Cc3cccc(F)c3)cn2)ccc1=O`
no (0)

Does the reported IC50 of `O=C(Nc1ccc(Cc2cc(F)cc(Cl)c2)cn1)c1cnc(Cl)cn1` stay below 3000 nM?
yes (1)

Bench note: check whether CN1CC(C(=O)Nc2ncc(Cc3cccc(F)c3)s2)CCC1=O (stereo not drawn) shows IC50 below 3000 nM
no (0)

Decide: IC50 of `Cn1nc(C(=O)Nc2cc(Cc3ccc(Cl)cc3)ccn2)ccc1=O` strictly below 3000 nM?
no (0)

State whether 3000 nM exceeds IC50 recorded for `Cn1cc(C(=O)Nc2nnc(Cc3ccc(F)c(Cl)c3)s2)ccc1=O` .
yes (1)

* * *

Target: human SCD1 (Homo sapiens, UniProt O00767)
Construct: expressed in transfected cells; host or cells: yeast strain with OLE1 deleted, plasmid-borne human SCD1 (selected in SD-Ura)
Sequence (O00767 1-359): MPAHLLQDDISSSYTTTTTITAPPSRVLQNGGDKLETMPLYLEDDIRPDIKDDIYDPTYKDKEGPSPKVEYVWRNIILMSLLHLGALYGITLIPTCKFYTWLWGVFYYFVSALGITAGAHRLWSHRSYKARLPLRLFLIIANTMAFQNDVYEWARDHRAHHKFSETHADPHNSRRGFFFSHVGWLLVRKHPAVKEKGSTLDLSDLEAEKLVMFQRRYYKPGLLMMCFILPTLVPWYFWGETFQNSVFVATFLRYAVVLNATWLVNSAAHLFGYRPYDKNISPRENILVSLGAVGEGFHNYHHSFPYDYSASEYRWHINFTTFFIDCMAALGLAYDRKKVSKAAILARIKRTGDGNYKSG
Assay: Growth inhibition of yeast strain expressing human SCD1 as sole desaturase (OLE1 deleted), OD600 readout
Assay type: cell-based
Details: yeast strain expressing human SCD1 as sole desaturase; growth (OD600) after 40 h at 30° C.; read-out: SCD1 IC50
met if IC50 is below 2 µM. not met if not; exact matches included in not met.

compound	assayed_target	assigned_label
O=C(Nc1ccc(Cc2ccc(F)c(F)c2)cn1)c1ccnnc1 [Compound 621]	human SCD1 (Homo sapiens, UniProt O00767)	met

is_below(IC50, 2 µM) for CN1N=C(C(=O)Nc2ccc(Cc3ccc4c(c3)COC4)cn2)CCC1=O [Example 19] ?
not met

Strictly below 2 µM: is that where IC50 of O=C(Nc1ccc(COc2cccc(Cl)c2)cn1)c1ccc(CO)nc1 [Compound 292] sits?
not met

State whether 2 µM exceeds IC50 recorded for Cn1cc(C(=O)Nc2ccc(Cc3cccc(Cl)c3)nn2)ccc1=O [Compound 183] .
not met

# strict comparison: is reported IC50 < 2 µM? input = Cn1ccc(C(=O)Nc2ccc(Cc3ccc(F)c(F)c3)cn2)nc1=O [Compound 548]
not met

Input Cc1cc(C(=O)Nc2ccc(Cc3cc(F)cc(C#N)c3)cn2)nn(C)c1=O [Compound 609] ; condition: IC50 strictly below 2 µM. Does it hold?
not met

Just wondering, is IC50 of C#Cn1nc(C(=O)Nc2ccc(Cc3cccc(Cl)c3)cn2)ccc1=O [Compound 521] below 2 µM?
not met

is_below(IC50, 2 µM) for CC(=O)C1CN(C(=O)Nc2ccc(Cc3cccc(Cl)c3)cn2)C1 [Compound 403] ?
not met

Just wondering, is IC50 of O=C(Nc1ccc(Cc2cc(F)cc(F)c2)cn1)c1cnnc(Cl)c1 [Compound 657] below 2 µM?
met

Input CCN1N=C(C(=O)Nc2ncc(Cc3cccc(F)c3)s2)CCC1=O [Compound 414] ; condition: IC50 strictly below 2 µM. Does it hold?
not met

Is IC50 strictly under 2 µM for the entry Cn1cc(NC(=O)c2ccc(Cc3cc(F)cc(F)c3)cn2)ccc1=O [Compound 311] ?
met

For this compound, is IC50 lower than 2 µM? Cn1nc(C(=O)Nc2ccc(COc3ccccc3Cl)cn2)ccc1=O [Compound 615]
not met

IC50 strictly < 2 µM for this compound? O=C(Nc1ccc(Cc2cc(F)cc(Cl)c2)cn1)c1ccc(CO)nc1 [Compound 111]
met
